- Tested on: NCI-H838
- TEST SUMMARY: relative viability (nuclei count vs DMSO), 5 days (fraction); higher = more cells survive
- CONDITION CONTEXT: first compound 2.53 µM
Let's look at some compounds and their measured relative viability.
OBSERVABLE: relative viability

- CCCCCCCCCCCC1=C(O)C(=O)C=C(O)C1=O [Embelin] + C[C@]1(O)C[C@@H](c2nc(-c3ccc4ccc(-c5ccccc5)nc4c3)c3c(N)nccn32)C1 [Linsitinib] (partner 1 µM): 1.03
- CCCCCCCCCCCC1=C(O)C(=O)C=C(O)C1=O [Embelin] + O=C(CCCCCCC(=O)Nc1ccccc1)NO [Vorinostat] (partner 1 µM): 0.782
- CCCCCCCCCCCC1=C(O)C(=O)C=C(O)C1=O [Embelin] + Nc1nc2[nH]cc(CCc3ccc(C(=O)N[C@@H](CCC(=O)O)C(=O)O)cc3)c2c(=O)[nH]1 [Pemetrexed] (partner 0.2 µM): 0.252
- CCCCCCCCCCCC1=C(O)C(=O)C=C(O)C1=O [Embelin] + Cc1nc(NC(=O)N2CCC[C@H]2C(N)=O)sc1-c1ccnc(C(C)(C)C(F)(F)F)c1 [Alpelisib] (partner 2 µM): 1.12
- CCCCCCCCCCCC1=C(O)C(=O)C=C(O)C1=O [Embelin] + NC(=O)Nc1cc(-c2cccc(F)c2)sc1C(=O)N[C@H]1CCCNC1 [AZD7762] (partner 0.2 µM): 0.912
- CCCCCCCCCCCC1=C(O)C(=O)C=C(O)C1=O [Embelin] + COc1cccc2cc(-c3nc([C@H]4CC[C@H](C(=O)O)CC4)n4ncnc(N)c34)[nH]c12 [OSI-027] (partner 0.5 µM): 0.38

* * *

- Test system: ChaGo-K-1
- TEST SUMMARY: relative viability (nuclei count vs DMSO), 5 days (fraction); higher = more cells survive
- CONDITION CONTEXT: first compound 4 µM
Categorized via relative viability: low class (below 0.5), middle class (0.5 to below 0.9), high class (0.9 or more)

* C[C@@H]1CN(CC(=O)Nc2ccc3c(c2)Cc2cccc(-c4cc(=O)cc(N5CCOCC5)o4)c2S3)C[C@H](C)O1 + O=C(c1cc(Cc2n[nH]c(=O)c3ccccc23)ccc1F)N1CCN(C(=O)C2CC2)CC1 [Olaparib] (partner 8 µM) | low class
* COc1cc(N2CCC(C(N)=O)CC2)ccc1Nc1nc(N)c(Cl)c(Nc2ccccc2S(=O)(=O)C(C)C)n1 [HG-5-88-01] + O=C(CCCCCCC(=O)Nc1ccccc1)NO [Vorinostat] (partner 1 µM) | middle class
* Clc1ccc(Nc2nnc(Cc3ccncc3)c3ccccc23)cc1 [Vatalanib] + N=C(N)NC(=N)NCCc1ccccc1 [Phenformin] (partner 250 µM) | low class
* COc1cc(N2CCC(C(N)=O)CC2)ccc1Nc1nc(N)c(Cl)c(Nc2ccccc2S(=O)(=O)C(C)C)n1 [HG-5-88-01] + COc1cccc2cc(-c3nc([C@H]4CC[C@H](C(=O)O)CC4)n4ncnc(N)c34)[nH]c12 [OSI-027] (partner 0.5 µM) | low class
* Clc1ccc(Nc2nnc(Cc3ccncc3)c3ccccc23)cc1 [Vatalanib] + CC(=O)c1c(C)c2cnc(Nc3ccc(N4CCNCC4)cn3)nc2n(C2CCCC2)c1=O [Palbociclib] (partner 0.5 µM) | high class
* C[C@@H]1CN(CC(=O)Nc2ccc3c(c2)Cc2cccc(-c4cc(=O)cc(N5CCOCC5)o4)c2S3)C[C@H](C)O1 + Nc1ncn([C@H]2C[C@H](O)[C@@H](CO)O2)c(=O)n1 [Decitabine] (partner 2 µM) | low class
* COc1cc(N2CCC(C(N)=O)CC2)ccc1Nc1nc(N)c(Cl)c(Nc2ccccc2S(=O)(=O)C(C)C)n1 [HG-5-88-01] + CC(C)C[C@H](NC(=O)[C@H](Cc1ccccc1)NC(=O)c1cnccn1)B(O)O [Bortezomib] (partner 0.002 µM) | middle class
* Clc1ccc(Nc2nnc(Cc3ccncc3)c3ccccc23)cc1 [Vatalanib] + Nc1ncn([C@H]2C[C@H](O)[C@@H](CO)O2)c(=O)n1 [Decitabine] (partner 2 µM) | middle class
* C[C@@H]1CN(CC(=O)Nc2ccc3c(c2)Cc2cccc(-c4cc(=O)cc(N5CCOCC5)o4)c2S3)C[C@H](C)O1 + O=C(CCCCCCC(=O)Nc1ccccc1)NO [Vorinostat] (partner 1 µM) | middle class
* COc1cc(N2CCC(C(N)=O)CC2)ccc1Nc1nc(N)c(Cl)c(Nc2ccccc2S(=O)(=O)C(C)C)n1 [HG-5-88-01] + CC1(C)CCC(c2ccc(Cl)cc2)=C(CN2CCN(c3ccc(C(=O)NS(=O)(=O)c4ccc(N[C@H](CCN5CCOCC5)CSc5ccccc5)c(S(=O)(=O)C(F)(F)F)c4)cc3)CC2)C1 [Navitoclax] (partner 0.5 µM) | middle class
* C[C@@H]1CN(CC(=O)Nc2ccc3c(c2)Cc2cccc(-c4cc(=O)cc(N5CCOCC5)o4)c2S3)C[C@H](C)O1 + CC(=O)Nc1cccc(-n2c(=O)n(C3CC3)c(=O)c3c(Nc4ccc(I)cc4F)n(C)c(=O)c(C)c32)c1 [Trametinib] (partner 0.02 µM) | middle class
* COc1cc(N2CCC(C(N)=O)CC2)ccc1Nc1nc(N)c(Cl)c(Nc2ccccc2S(=O)(=O)C(C)C)n1 [HG-5-88-01] + CCNC(=O)c1noc(-c2cc(C(C)C)c(O)cc2O)c1-c1ccc(CN2CCOCC2)cc1 [Luminespib] (partner 0.01 µM) | middle class
* C[C@@H]1CN(CC(=O)Nc2ccc3c(c2)Cc2cccc(-c4cc(=O)cc(N5CCOCC5)o4)c2S3)C[C@H](C)O1 + CC1(C)CCC(c2ccc(Cl)cc2)=C(CN2CCN(c3ccc(C(=O)NS(=O)(=O)c4ccc(N[C@H](CCN5CCOCC5)CSc5ccccc5)c(S(=O)(=O)C(F)(F)F)c4)cc3)CC2)C1 [Navitoclax] (partner 0.5 µM) | high class
